Tested on: Trichophyton mentagrophytes
testSummary: Antimicrobial activity against Trichophyton mentagrophytes at 120 ug/disk
Type: functional
experimentalConditions: read-out: IZ
propertyMeasured: zone of inhibition at 120 µg/disc (mm)

[[record]]
molecule = "C=C(CCO)C(=O)OC[C@H]1O[C@@H](Oc2ccc(O)cc2)[C@H](O)[C@@H](O)[C@@H]1O"
unitinfo = "mm"
valueobserved = 0

[[record]]
molecule = "OC[C@H]1O[C@@H](Oc2ccc(O)cc2)[C@H](O)[C@@H](O)[C@@H]1O [ARBUTIN]"
unitinfo = "mm"
valueobserved = 0

[[record]]
molecule = "Oc1ccc(O)cc1 [HYDROQUINONE]"
unitinfo = "mm"
valueobserved = 10

[[record]]
molecule = "C=C(C(=O)OC[C@H]1O[C@@H](Oc2ccc(O)cc2)[C@H](O)[C@@H](O)[C@@H]1O)[C@@H](O)CO"
unitinfo = "mm"
valueobserved = 5

[[record]]
molecule = "C=C1CCOC1=O [TULIPALINE A]"
unitinfo = "mm"
valueobserved = 8


From: ChEMBL document CHEMBL1146419
